B1: ZNF263 (parent)
chain: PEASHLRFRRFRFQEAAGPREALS

# Variants of: B1
# method.description: protein stability index of a GFP-peptide fusion (GPS, HEK-293T) (PSI 1-6); higher = more stable;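 also: lentivirally expressed fusions sorted by FACS into six bins by GFP to DsRed ratio, PSI derived from sequencing read proportions per bin multiplied by bin number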
# stated.conditions: c terminus: a fixed tail appended
Assignment: determine reported protein stability index for the given variants.
Lab note: jot down the number only; don't add units.

// protein stability index lookup, variant = E15M , result: 2.38

// protein stability index lookup, variant = S24A , result: 2.28

// protein stability index lookup, variant = R12I , result: 2.33

// protein stability index lookup, variant = F8T , result: 3.4

// protein stability index lookup, variant = R9K , result: 2.82

// protein stability index lookup, variant = P1H , result: 2.16

// protein stability index lookup, variant = S24C , result: 2.42

// protein stability index lookup, variant = R20H , result: 2.4

// protein stability index lookup, variant = R10A , result: 2.18

// protein stability index lookup, variant = E2Y , result: 1.82

// protein stability index lookup, variant = E21V , result: 1.85

// protein stability index lookup, variant = H5K , result: 1.77

// protein stability index lookup, variant = R10L , result: 2.49

// protein stability index lookup, variant = Q14C , result: 1.89

// protein stability index lookup, variant = L6Q , result: 3.63

// protein stability index lookup, variant = R20E , result: 3.35

// protein stability index lookup, variant = F8E , result: 3.98

// protein stability index lookup, variant = Q14K , result: 3.34

// protein stability index lookup, variant = A16E , result: 2.36

// protein stability index lookup, variant = E15W , result: 2.15

// protein stability index lookup, variant = E2H , result: 2

// protein stability index lookup, variant = L6E , result: 3.61

// protein stability index lookup, variant = G18V , result: 2.38

// protein stability index lookup, variant = S4K , result: 2.04

// protein stability index lookup, variant = P1G , result: 2.8

// protein stability index lookup, variant = G18H , result: 2.98

// protein stability index lookup, variant = E15Y , result: 2.05

// protein stability index lookup, variant = E2T , result: 2.4

// protein stability index lookup, variant = G18P , result: 3.36

// protein stability index lookup, variant = A3Y , result: 2.38

// protein stability index lookup, variant = R20C , result: 2.21

// protein stability index lookup, variant = Q14H , result: 1.16

// protein stability index lookup, variant = S24I , result: 2.52

// protein stability index lookup, variant = P19Q , result: 3.18

// protein stability index lookup, variant = P19S , result: 2.87

// protein stability index lookup, variant = A22Y , result: 2.29

// protein stability index lookup, variant = H5W , result: 2.44

// protein stability index lookup, variant = L23G , result: 3.04

// protein stability index lookup, variant = S4F , result: 1.87

// protein stability index lookup, variant = P1K , result: 2.38

// protein stability index lookup, variant = L6K , result: 2.73

// protein stability index lookup, variant = E2C , result: 1.08

// protein stability index lookup, variant = F11N , result: 4.33

// protein stability index lookup, variant = G18C , result: 2.67

// protein stability index lookup, variant = R12M , result: 3.46

// protein stability index lookup, variant = G18Q , result: 2.81
